biological target: human BACE1 (Homo sapiens, UniProt P56817); experiment: Fluorescent kinetic assay, evaluation of BACE1 binding affinity of test compounds; format: biochemical; details: 10 nM human BACE1, 25 μM substrate WABC-6, pH 4.5, room temperature; read-out: BACE1 IC50
Sequence (P56817 46-501): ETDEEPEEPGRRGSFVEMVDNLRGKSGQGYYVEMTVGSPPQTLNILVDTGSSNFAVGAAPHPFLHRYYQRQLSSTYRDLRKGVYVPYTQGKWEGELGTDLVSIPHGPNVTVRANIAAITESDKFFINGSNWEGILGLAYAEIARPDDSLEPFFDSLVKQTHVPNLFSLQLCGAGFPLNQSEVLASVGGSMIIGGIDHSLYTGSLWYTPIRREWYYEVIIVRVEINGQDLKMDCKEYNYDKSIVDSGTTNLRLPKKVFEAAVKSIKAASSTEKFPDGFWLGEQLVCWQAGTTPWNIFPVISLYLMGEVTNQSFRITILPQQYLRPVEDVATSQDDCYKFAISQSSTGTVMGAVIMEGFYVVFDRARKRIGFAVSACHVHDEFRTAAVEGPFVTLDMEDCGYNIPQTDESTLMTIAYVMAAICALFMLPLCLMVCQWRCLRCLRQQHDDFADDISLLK
pIC50: −log10 of the molar value.
measuredParameter: pIC50

Record Cc1cc(C2(c3ccc(F)c(OCCF)c3)N=C(N)N(C)C2=O)ccc1OC(F)F (stereo not shown) , field pIC50: > 7.00

Entry CN1C(=O)[C@](c2ccc(F)c(OCCCF)c2)(c2ccc(OC(F)F)c(C3CC3)c2)N=C1N (single isomer, unassigned) , pIC50 reported as > 7.00

The reported pIC50 of the molecule COCC#Cc1cccc([C@@]2(c3ccc(OC(F)F)c(C4CC4)c3)N=C(N)N(C)C2=O)c1 (single isomer, unassigned) was > 7.00

Looking up CCc1cc([C@@]2(c3ccc(F)c(C#CC(C)C)c3)N=C(N)N(C)C2=O)ccc1OC(F)F , I see its pIC50 listed as 6.00 to 6.96

// field: pIC50; key: CC#Cc1cccc([C@]2(c3ccc(OC(F)F)c(C4CC4)c3)N=C(N)N(C)C2=O)c1 (single isomer, unassigned) ; value = < 6.00

Entry under test: CN1C(=O)[C@@](c2cccc(C#CCCCF)c2)(c2ccc(OC(F)F)c(C3CC3)c2)N=C1N (single isomer, unassigned) . Its pIC50 was 6.00 to 6.96

Form: molecule = CN1C(=O)[C@](c2ccc(F)c(C#CCCF)c2)(c2ccc(OC(F)F)c(C3CC3)c2)N=C1N ; pIC50 = > 7.00

====

// reported pIC50 for each item listed
target: human BACE1 (Homo sapiens, UniProt P56817); assay: Fluorescent kinetic assay, evaluation of BACE1 binding affinity of test compounds; assay type: biochemical; settings: 10 nM human BACE1, 25 μM substrate WABC-6, pH 4.5, room temperature; read-out: BACE1 IC50
pIC50: −log10 of the molar value.

compound: CCc1cc([C@]2(c3cccc(C#CCF)c3)N=C(N)N(C)C2=O)ccc1OC(F)F
pIC50: > 7.00
--
compound: CN1C(=O)C(c2cccc(OCCF)c2)(c2ccc(OC(F)F)c(Cl)c2)N=C1N (centres unmarked)
pIC50: > 7.00

Would you kindly look at the next entry?
For reference, reported pIC50 for CCc1cc([C@@]2(c3cccc(C#CCF)c3)N=C(N)N(C)C2=O)ccc1OC(F)F stands at < 6.00

====

biological target: human BACE1 (Homo sapiens, UniProt P56817); assay: Fluorescent kinetic assay, evaluation of BACE1 binding affinity of test compounds; assay type: biochemical; conditions: read-out: BACE1 IC50 μM; 10 nM human BACE1, 25 μM substrate WABC-6, pH 4.5, room temperature
measuredParameter: IC50

The measured IC50 associated with CC(C)c1cc(C2(c3ccccc3)N=C(N)N(C)C2=O)ccc1OC(F)F (stereo not shown) reads 0.11 to 1 µM

====

biological target: human BACE1 (Homo sapiens, UniProt P56817); assay: Fluorescent kinetic assay, evaluation of BACE1 binding affinity of test compounds; assay type: biochemical; details: 10 nM human BACE1, 25 μM substrate WABC-6, pH 4.5, room temperature; read-out: BACE1 IC50
pIC50: −log10 of the molar value.
measuredParameter: pIC50

molecule: COCC/C=C/c1cccc(C2(c3ccc(OC(F)F)c(C)c3)N=C(N)N(C)C2=O)c1 (centres unmarked)
pIC50: > 7.00

Lookup result for Cc1cc(C2(c3cccc(OCCCF)c3)N=C(N)N(C)C2=O)ccc1OC(F)F (centres unmarked) ; measured pIC50: > 7.00

Item: COCCC#Cc1cccc([C@@]2(c3ccc(OC(F)F)c(C4CC4)c3)N=C(N)N(C)C2=O)c1 (single isomer, unassigned) | pIC50: > 7.00

Form field pIC50, entry Cc1cc(C2(c3ccc(OC(F)F)c(C)c3)N=C(N)N(C)C2=O)ccc1OC(F)F : 6.00 to 6.96

Entry COCCc1cc(C2(c3ccccc3)N=C(N)N(C)C2=O)ccc1OC(F)F (centres unmarked) — recorded pIC50 = > 7.00

So, CN1C(=O)[C@](c2cccc(C#CCF)c2)(c2ccc(OC(F)F)c(C3CC3)c2)N=C1N ? Its pIC50 was > 7.00

# molecule CCc1cc(C2(c3cccc(C#CCF)c3)N=C(N)N(C)C2=O)ccc1OC(F)F (centres unmarked) ; its pIC50 = > 7.00

According to the records, this molecule CN1C(=O)[C@@](c2cccc(C#CCF)c2)(c2ccc(OC(F)F)c(C3CC3)c2)N=C1N displays pIC50 of < 6.00

====

target: human BACE1 (Homo sapiens, UniProt P56817); assay: Fluorescent kinetic assay, evaluation of BACE1 binding affinity of test compounds; format: biochemical; settings: 10 nM human BACE1, 25 μM substrate WABC-6, pH 4.5, room temperature; read-out: BACE1 IC50
Parameter IC50: see the listing below.

molecule: CCc1cc(C2(c3ccc(F)c(OCCCF)c3)N=C(N)N(C)C2=O)ccc1OC(F)F (stereo not shown) [Example 120]
IC50: < 100 nM
--
molecule: Cc1cc(C2(c3cccc(C#CCF)c3)N=C(N)N(C)C2=O)ccc1OC(F)F (stereo not shown)
IC50: < 100 nM
--
molecule: Cc1cc(C2(c3cccc(/C=C/CCF)c3)N=C(N)N(C)C2=O)ccc1OC(F)F (stereo not shown)
IC50: < 100 nM

Then there is this molecule:
What the record says about CCCc1cc([C@]2(c3ccccc3)N=C(N)N(C)C2=O)ccc1OC(F)F (single isomer, unassigned) [Example 80] : IC50 is > 1000 nM

====

biological target: human BACE1 (Homo sapiens, UniProt P56817); assay: Fluorescent kinetic assay, evaluation of BACE1 binding affinity of test compounds; assay type: biochemical; conditions: BACE1 IC50 μM, 10 nM human BACE1, 25 μM substrate WABC-6, pH 4.5, room temperature
Reported IC50 values for a set of molecules

Completed entries (count: 5):
molecule: CCc1cc([C@]2(c3ccccc3)N=C(N)N(C)C2=O)ccc1OC(F)F
measuredTarget: human BACE1 (Homo sapiens, UniProt P56817)
measurement: < 0.1 µM

molecule: CN1C(=O)C(c2ccccc2)(c2ccc(OC(F)F)c(CF)c2)N=C1N (stereo not drawn)
measuredTarget: human BACE1 (Homo sapiens, UniProt P56817)
measurement: 0.11 to 1 µM

molecule: CCc1cc(C2(c3ccc(F)cc3)N=C(N)N(C)C2=O)ccc1OC(F)F (stereo not drawn)
measuredTarget: human BACE1 (Homo sapiens, UniProt P56817)
measurement: 0.11 to 1 µM

molecule: CCCc1cc(C2(c3ccccc3)N=C(N)N(C)C2=O)ccc1OC(F)F (stereo not drawn)
measuredTarget: human BACE1 (Homo sapiens, UniProt P56817)
measurement: 0.11 to 1 µM

molecule: CN1C(=O)C(c2ccccc2)(c2ccc(OC(F)F)c(C(F)(F)F)c2)N=C1N (stereo not drawn)
measuredTarget: human BACE1 (Homo sapiens, UniProt P56817)
measurement: 0.11 to 1 µM

Recorded result, Cc1cc(C2(c3ccc(F)c(CF)c3)N=C(N)N(C)C2=O)ccc1OC(F)F (stereo not drawn) , IC50: 0.11 to 1 µM

In plain terms, CCc1cc(C2(c3ccccc3)N=C(N)N(C)C2=O)ccc1OC(F)F (stereo not drawn) has a documented IC50 of 0.11 to 1 µM

IC50 in this record for COc1ccc(C2(c3ccc(OC(F)F)c(C)c3)N=C(N)N(C)C2=O)cc1C#N (stereo not drawn) : 0.11 to 1 µM

Item: C=Cc1cc(C2(c3ccccc3)N=C(N)N(C)C2=O)ccc1OC(F)F (stereo not drawn) | IC50: 0.11 to 1 µM

Entry CN1C(=O)C(c2ccccc2)(c2ccc(OC(F)F)c(C3CC3)c2)N=C1N (stereo not drawn) ; IC50 = < 0.1 µM

Sample CN1C(=O)[C@](c2ccccc2)(c2ccc(OC(F)F)c(Cl)c2)N=C1N ; IC50 observed: 0.11 to 1 µM

The reported value for Cc1cc(C2(c3ccc(F)c(Br)c3)N=C(N)N(C)C2=O)ccc1OC(F)F (stereo not drawn) [Example 32] in terms of IC50 is < 0.1 µM

Lab book: IC50 of Cc1cc(C2(c3ccccc3)N=C(N)N(C)C2=O)cc(C)c1OC(F)F (stereo not drawn) noted as 0.11 to 1 µM

Looking up C=Cc1cc([C@@]2(c3ccccc3)N=C(N)N(C)C2=O)ccc1OC(F)F , I see its IC50 listed as < 0.1 µM

# IC50 (molecule: CN1C(=O)C(c2ccccc2)(c2ccc(OC(F)F)c(F)c2)N=C1N (stereo not drawn) ) is 0.11 to 1 µM

Reported IC50 of C=Cc1cc([C@]2(c3ccccc3)N=C(N)N(C)C2=O)ccc1OC(F)F : > 1 µM

GET /value?item= CCc1cc([C@@]2(c3ccccc3)N=C(N)N(C)C2=O)ccc1OC(F)F &field=IC50 returns > 1 µM

The value of IC50 measured for the molecule CN1C(=O)[C@@](c2ccccc2)(c2ccc(OC(F)F)c(Cl)c2)N=C1N turned out to be > 1 µM

Short answer for Cc1cc(C2(c3ccc(OC(F)F)c(C)c3)N=C(N)N(C)C2=O)ccc1F (stereo not drawn) : IC50 was 0.11 to 1 µM

IC50 reported for this molecule COc1cc(C2(c3ccccc3)N=C(N)N(C)C2=O)ccc1OC(F)F (stereo not drawn) : 0.11 to 1 µM

For reference, reported IC50 for Cc1cc(C2(c3ccc(F)c(Br)c3)N=C(N)N(C)C2=O)ccc1OC(F)F (stereo not drawn) [Example 31] stands at 0.11 to 1 µM

Values compiled from patent US20090042964A1.
